Target: NuaK1 (Homo sapiens)
Construct: purchased Carna Biosciences
Sequence (O60285 whole entry): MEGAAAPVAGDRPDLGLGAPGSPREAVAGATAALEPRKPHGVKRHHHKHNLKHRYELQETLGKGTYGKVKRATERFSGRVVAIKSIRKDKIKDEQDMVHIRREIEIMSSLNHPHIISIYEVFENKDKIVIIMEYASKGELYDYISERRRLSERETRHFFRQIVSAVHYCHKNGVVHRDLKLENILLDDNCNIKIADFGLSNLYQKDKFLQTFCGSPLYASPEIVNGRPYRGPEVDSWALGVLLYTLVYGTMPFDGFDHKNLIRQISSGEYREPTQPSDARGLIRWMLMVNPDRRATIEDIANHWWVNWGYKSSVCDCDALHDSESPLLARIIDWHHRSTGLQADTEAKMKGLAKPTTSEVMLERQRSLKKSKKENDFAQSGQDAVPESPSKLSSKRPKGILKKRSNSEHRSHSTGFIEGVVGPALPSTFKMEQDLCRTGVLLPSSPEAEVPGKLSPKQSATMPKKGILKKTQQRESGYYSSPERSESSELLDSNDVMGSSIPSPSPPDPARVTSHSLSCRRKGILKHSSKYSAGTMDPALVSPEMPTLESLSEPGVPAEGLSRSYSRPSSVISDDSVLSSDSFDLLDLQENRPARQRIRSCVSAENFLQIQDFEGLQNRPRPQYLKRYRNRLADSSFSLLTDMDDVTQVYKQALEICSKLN
Test: Kinase panel profiling at 1 µmol/L (mobility shift assay, Carna)
Format: biochemical
Details: 1 µmol/L of BTK inhibitor
quantity: Percentage inhibition of kinase enzyme activity (%)
Numeric only. Scale: %

These recorded examples may help you get a feel for the data.
- O=C(c1ccc(Oc2ccccc2)cc1Cl)c1c[nH]c2ncnc(N[C@@H]3CC[C@@H](CO)OC3)c12 [nemtabrutinib]: 3.95
- C=CC(=O)N1CCC[C@@H](n2nc(-c3ccc(Oc4ccccc4)cc3)c3c(N)ncnc32)C1 [ibrutinib]: 6.70
- CC#CC(=O)N1CCC[C@H]1c1nc(-c2ccc(C(=O)Nc3ccccn3)cc2)c2c(N)nccn12 [acalabrutinib]: -3.51

Item: COc1ccc(F)cc1C(=O)NCc1ccc(-c2nn([C@@H](C)C(F)(F)F)c(N)c2C(N)=O)cc1 [pirtobrutinib] | Percentage inhibition of kinase enzyme activity: 4.02

----------
Biological target: ACK (Homo sapiens)
Construct: purchased Carna Biosciences
Test: Kinase panel profiling at 1 µmol/L (mobility shift assay, Carna)
Assay type: biochemical
Settings: 1 µmol/L of BTK inhibitor
quantity: Percentage inhibition of kinase enzyme activity (%)
Numeric only. Scale: %

These recorded examples may help you get a feel for the data.
- C=CC(=O)N1CCC[C@@H](n2nc(-c3ccc(Oc4ccccc4)cc3)c3c(N)ncnc32)C1 [ibrutinib]: 72.74
- O=C(c1ccc(Oc2ccccc2)cc1Cl)c1c[nH]c2ncnc(N[C@@H]3CC[C@@H](CO)OC3)c12 [nemtabrutinib]: 98.62
- CC#CC(=O)N1CCC[C@H]1c1nc(-c2ccc(C(=O)Nc3ccccn3)cc2)c2c(N)nccn12 [acalabrutinib]: 14.06

Query compound follows.
Item: COc1ccc(F)cc1C(=O)NCc1ccc(-c2nn([C@@H](C)C(F)(F)F)c(N)c2C(N)=O)cc1 [pirtobrutinib] | Percentage inhibition of kinase enzyme activity: 13.05

----------
Target: WNK3 (Homo sapiens, UniProt Q9BYP7)
Construct: purchased Carna Biosciences
Sequence (Q9BYP7 whole entry): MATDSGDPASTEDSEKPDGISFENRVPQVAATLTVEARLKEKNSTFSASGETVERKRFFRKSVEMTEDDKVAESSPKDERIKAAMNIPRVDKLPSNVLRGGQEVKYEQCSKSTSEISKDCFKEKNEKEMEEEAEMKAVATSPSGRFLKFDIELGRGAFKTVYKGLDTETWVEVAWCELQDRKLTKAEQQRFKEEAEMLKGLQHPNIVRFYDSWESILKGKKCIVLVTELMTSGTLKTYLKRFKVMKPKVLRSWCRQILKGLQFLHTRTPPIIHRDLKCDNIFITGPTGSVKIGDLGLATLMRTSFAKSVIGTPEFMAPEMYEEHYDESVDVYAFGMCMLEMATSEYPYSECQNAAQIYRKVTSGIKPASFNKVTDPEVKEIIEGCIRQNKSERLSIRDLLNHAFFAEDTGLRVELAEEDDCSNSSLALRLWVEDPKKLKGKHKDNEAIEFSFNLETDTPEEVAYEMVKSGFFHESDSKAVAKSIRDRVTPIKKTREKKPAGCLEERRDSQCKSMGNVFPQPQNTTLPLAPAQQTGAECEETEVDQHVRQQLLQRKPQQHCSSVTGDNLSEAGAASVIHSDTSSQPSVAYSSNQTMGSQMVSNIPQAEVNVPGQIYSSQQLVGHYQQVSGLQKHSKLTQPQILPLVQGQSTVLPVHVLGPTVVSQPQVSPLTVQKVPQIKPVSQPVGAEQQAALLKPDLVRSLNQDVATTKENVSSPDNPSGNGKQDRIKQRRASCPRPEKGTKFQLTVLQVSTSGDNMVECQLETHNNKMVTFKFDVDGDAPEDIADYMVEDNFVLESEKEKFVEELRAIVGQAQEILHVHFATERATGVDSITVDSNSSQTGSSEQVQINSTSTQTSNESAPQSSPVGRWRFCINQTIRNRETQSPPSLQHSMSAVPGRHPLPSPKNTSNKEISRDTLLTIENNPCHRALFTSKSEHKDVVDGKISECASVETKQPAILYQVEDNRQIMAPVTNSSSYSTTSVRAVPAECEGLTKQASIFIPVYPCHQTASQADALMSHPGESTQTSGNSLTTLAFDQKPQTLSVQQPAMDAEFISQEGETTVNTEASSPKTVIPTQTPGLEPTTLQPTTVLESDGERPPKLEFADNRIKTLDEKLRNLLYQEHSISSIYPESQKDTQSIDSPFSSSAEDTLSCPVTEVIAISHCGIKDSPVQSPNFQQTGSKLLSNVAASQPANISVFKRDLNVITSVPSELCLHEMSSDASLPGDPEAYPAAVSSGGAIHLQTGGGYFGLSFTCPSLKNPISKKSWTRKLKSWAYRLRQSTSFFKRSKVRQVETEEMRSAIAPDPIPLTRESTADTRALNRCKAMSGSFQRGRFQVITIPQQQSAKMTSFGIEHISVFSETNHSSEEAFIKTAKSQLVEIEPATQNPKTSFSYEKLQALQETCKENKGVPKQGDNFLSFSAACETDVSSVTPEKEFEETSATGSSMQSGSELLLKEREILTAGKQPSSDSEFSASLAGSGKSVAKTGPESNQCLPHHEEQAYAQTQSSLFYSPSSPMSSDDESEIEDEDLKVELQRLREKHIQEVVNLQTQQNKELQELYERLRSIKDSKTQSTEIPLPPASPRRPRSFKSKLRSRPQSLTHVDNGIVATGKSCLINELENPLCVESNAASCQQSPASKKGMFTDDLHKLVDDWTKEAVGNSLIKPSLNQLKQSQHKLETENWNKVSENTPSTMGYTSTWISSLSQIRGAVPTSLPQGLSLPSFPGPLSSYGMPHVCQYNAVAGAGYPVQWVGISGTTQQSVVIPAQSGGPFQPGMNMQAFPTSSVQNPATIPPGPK
Experiment: Kinase panel profiling at 1 µmol/L (mobility shift assay, Carna)
Assay type: biochemical
Conditions: 1 µmol/L of BTK inhibitor
quantity: Percentage inhibition of kinase enzyme activity (%)
Numeric only. Scale: %

* COc1ccc(F)cc1C(=O)NCc1ccc(-c2nn([C@@H](C)C(F)(F)F)c(N)c2C(N)=O)cc1 [pirtobrutinib] | 2.54
* CC#CC(=O)N1CCC[C@H]1c1nc(-c2ccc(C(=O)Nc3ccccn3)cc2)c2c(N)nccn12 [acalabrutinib] | -0.26

Item: O=C(c1ccc(Oc2ccccc2)cc1Cl)c1c[nH]c2ncnc(N[C@@H]3CC[C@@H](CO)OC3)c12 [nemtabrutinib] | Percentage inhibition of kinase enzyme activity: 52.96

Item: C=CC(=O)N1CCC[C@@H](n2nc(-c3ccc(Oc4ccccc4)cc3)c3c(N)ncnc32)C1 [ibrutinib] | Percentage inhibition of kinase enzyme activity: 6.84

----------
Molecular target: PDK1 (Homo sapiens)
Construct: purchased Carna Biosciences
Sequence (O15530 whole entry): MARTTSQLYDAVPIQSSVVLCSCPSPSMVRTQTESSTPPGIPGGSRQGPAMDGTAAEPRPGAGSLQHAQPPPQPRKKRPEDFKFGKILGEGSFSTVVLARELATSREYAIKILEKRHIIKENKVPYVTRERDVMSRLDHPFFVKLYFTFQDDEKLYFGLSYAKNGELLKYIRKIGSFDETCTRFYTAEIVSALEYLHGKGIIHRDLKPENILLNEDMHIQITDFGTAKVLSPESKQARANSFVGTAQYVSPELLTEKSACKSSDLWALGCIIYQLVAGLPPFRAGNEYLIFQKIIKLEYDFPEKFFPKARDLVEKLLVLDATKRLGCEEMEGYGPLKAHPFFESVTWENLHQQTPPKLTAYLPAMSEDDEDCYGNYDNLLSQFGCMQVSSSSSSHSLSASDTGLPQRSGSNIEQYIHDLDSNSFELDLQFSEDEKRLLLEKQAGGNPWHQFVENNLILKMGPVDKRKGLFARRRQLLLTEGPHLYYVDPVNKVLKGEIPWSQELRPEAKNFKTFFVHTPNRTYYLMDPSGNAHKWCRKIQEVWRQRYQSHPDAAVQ
Experiment: Kinase panel profiling at 1 µmol/L (mobility shift assay, Carna)
Format: biochemical
Details: 1 µmol/L of BTK inhibitor
quantity: Percentage inhibition of kinase enzyme activity (%)
Numeric only. Scale: %

- CC#CC(=O)N1CCC[C@H]1c1nc(-c2ccc(C(=O)Nc3ccccn3)cc2)c2c(N)nccn12 [acalabrutinib]: -1.47
- O=C(c1ccc(Oc2ccccc2)cc1Cl)c1c[nH]c2ncnc(N[C@@H]3CC[C@@H](CO)OC3)c12 [nemtabrutinib]: 2.54
- C=CC(=O)N1CCC[C@@H](n2nc(-c3ccc(Oc4ccccc4)cc3)c3c(N)ncnc32)C1 [ibrutinib]: -2.01

Query molecule follows.
Item: COc1ccc(F)cc1C(=O)NCc1ccc(-c2nn([C@@H](C)C(F)(F)F)c(N)c2C(N)=O)cc1 [pirtobrutinib] | Percentage inhibition of kinase enzyme activity: -1.19

----------
Target: CaMK2γ (Homo sapiens, UniProt Q13555)
Construct: purchased Carna Biosciences
Assay: Kinase panel profiling at 1 µmol/L (mobility shift assay, Carna)
Format: biochemical
Conditions: 1 µmol/L of BTK inhibitor
Each item that follows carries a reported Percentage inhibition of kinase enzyme activity.
Numeric only. Scale: %

These recorded examples may help you get a feel for the data.
- CC#CC(=O)N1CCC[C@H]1c1nc(-c2ccc(C(=O)Nc3ccccn3)cc2)c2c(N)nccn12: -1.85
- COc1ccc(F)cc1C(=O)NCc1ccc(-c2nn([C@@H](C)C(F)(F)F)c(N)c2C(N)=O)cc1: -1.71
- O=C(c1ccc(Oc2ccccc2)cc1Cl)c1c[nH]c2ncnc(N[C@@H]3CC[C@@H](CO)OC3)c12: 1.06

Query compound follows.
Item: C=CC(=O)N1CCC[C@@H](n2nc(-c3ccc(Oc4ccccc4)cc3)c3c(N)ncnc32)C1 | Percentage inhibition of kinase enzyme activity: -1.83

----------
Target: TSSK3 (Homo sapiens, UniProt Q96PN8)
Construct: purchased Carna Biosciences
Sequence (Q96PN8 whole entry): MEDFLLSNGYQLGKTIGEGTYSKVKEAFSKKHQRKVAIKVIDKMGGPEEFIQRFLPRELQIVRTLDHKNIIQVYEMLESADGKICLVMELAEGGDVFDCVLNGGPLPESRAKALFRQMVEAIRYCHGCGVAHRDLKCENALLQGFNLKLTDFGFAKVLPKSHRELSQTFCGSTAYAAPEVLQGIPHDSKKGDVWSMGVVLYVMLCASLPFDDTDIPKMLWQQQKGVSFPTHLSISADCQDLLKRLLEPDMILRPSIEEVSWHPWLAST
Test: Kinase panel profiling at 1 µmol/L (mobility shift assay, Carna)
Type: biochemical
Conditions: 1 µmol/L of BTK inhibitor
quantity: Percentage inhibition of kinase enzyme activity

These recorded examples may help you get a feel for the data.
• O=C(c1ccc(Oc2ccccc2)cc1Cl)c1c[nH]c2ncnc(N[C@@H]3CC[C@@H](CO)OC3)c12 [nemtabrutinib] = 2.56%
• COc1ccc(F)cc1C(=O)NCc1ccc(-c2nn([C@@H](C)C(F)(F)F)c(N)c2C(N)=O)cc1 [pirtobrutinib] = -1.40%
• C=CC(=O)N1CCC[C@@H](n2nc(-c3ccc(Oc4ccccc4)cc3)c3c(N)ncnc32)C1 [ibrutinib] = -3.87%

Log: TSSK3 (Homo sapiens, UniProt Q96PN8), compound CC#CC(=O)N1CCC[C@H]1c1nc(-c2ccc(C(=O)Nc3ccccn3)cc2)c2c(N)nccn12 [acalabrutinib] , Percentage inhibition of kinase enzyme activity = -7.85%

----------
Molecular target: CDK2/CycE1 (Homo sapiens, UniProt P24941)
Construct: purchased Carna Biosciences
Assay: Kinase panel profiling at 1 µmol/L (mobility shift assay, Carna)
Assay type: biochemical
Conditions: 1 µmol/L of BTK inhibitor
quantity: Percentage inhibition of kinase enzyme activity (%)
Numeric only. Scale: %

These recorded examples may help you get a feel for the data.
* O=C(c1ccc(Oc2ccccc2)cc1Cl)c1c[nH]c2ncnc(N[C@@H]3CC[C@@H](CO)OC3)c12 | -17.66
* C=CC(=O)N1CCC[C@@H](n2nc(-c3ccc(Oc4ccccc4)cc3)c3c(N)ncnc32)C1 | -8.27

Log: CDK2/CycE1 (Homo sapiens, UniProt P24941), compound COc1ccc(F)cc1C(=O)NCc1ccc(-c2nn([C@@H](C)C(F)(F)F)c(N)c2C(N)=O)cc1 , Percentage inhibition of kinase enzyme activity = -41.48

Log: CDK2/CycE1 (Homo sapiens, UniProt P24941), compound CC#CC(=O)N1CCC[C@H]1c1nc(-c2ccc(C(=O)Nc3ccccn3)cc2)c2c(N)nccn12 , Percentage inhibition of kinase enzyme activity = -4.82

----------
Target: PKR (Homo sapiens, UniProt P19525)
Construct: purchased Carna Biosciences
Sequence (P19525 whole entry): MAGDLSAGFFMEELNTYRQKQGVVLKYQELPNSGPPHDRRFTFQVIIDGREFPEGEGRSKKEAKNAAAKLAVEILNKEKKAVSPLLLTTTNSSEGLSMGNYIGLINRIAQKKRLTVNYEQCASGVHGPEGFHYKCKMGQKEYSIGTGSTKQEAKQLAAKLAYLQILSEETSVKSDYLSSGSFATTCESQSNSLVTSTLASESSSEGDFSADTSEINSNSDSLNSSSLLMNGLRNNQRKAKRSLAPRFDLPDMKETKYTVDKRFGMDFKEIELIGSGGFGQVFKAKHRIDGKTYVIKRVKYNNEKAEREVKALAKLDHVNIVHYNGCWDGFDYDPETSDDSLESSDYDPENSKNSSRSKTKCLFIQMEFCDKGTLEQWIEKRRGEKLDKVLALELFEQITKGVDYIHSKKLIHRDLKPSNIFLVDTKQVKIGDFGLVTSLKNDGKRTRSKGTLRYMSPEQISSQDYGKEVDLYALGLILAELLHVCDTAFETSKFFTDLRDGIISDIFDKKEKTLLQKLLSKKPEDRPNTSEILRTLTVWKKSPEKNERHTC
Test: Kinase panel profiling at 1 µmol/L (mobility shift assay, Carna)
Format: biochemical
Details: 1 µmol/L of BTK inhibitor
quantity: Percentage inhibition of kinase enzyme activity (%)
Numeric only. Scale: %

These recorded examples may help you get a feel for the data.
- COc1ccc(F)cc1C(=O)NCc1ccc(-c2nn([C@@H](C)C(F)(F)F)c(N)c2C(N)=O)cc1 [pirtobrutinib]: 7.39
- C=CC(=O)N1CCC[C@@H](n2nc(-c3ccc(Oc4ccccc4)cc3)c3c(N)ncnc32)C1 [ibrutinib]: 5.63
- O=C(c1ccc(Oc2ccccc2)cc1Cl)c1c[nH]c2ncnc(N[C@@H]3CC[C@@H](CO)OC3)c12 [nemtabrutinib]: 29.57

Query molecule follows.
Item: CC#CC(=O)N1CCC[C@H]1c1nc(-c2ccc(C(=O)Nc3ccccn3)cc2)c2c(N)nccn12 [acalabrutinib] | Percentage inhibition of kinase enzyme activity: 7.19

----------
Target: ABL (Homo sapiens, UniProt P00519)
Construct: purchased Carna Biosciences
Experiment: Kinase panel profiling at 1 µmol/L (mobility shift assay, Carna)
Format: biochemical
Settings: 1 µmol/L of BTK inhibitor
quantity: Percentage inhibition of kinase enzyme activity (%)
Numeric only. Scale: %

Item: O=C(c1ccc(Oc2ccccc2)cc1Cl)c1c[nH]c2ncnc(N[C@@H]3CC[C@@H](CO)OC3)c12 | Percentage inhibition of kinase enzyme activity: 56.26

Item: COc1ccc(F)cc1C(=O)NCc1ccc(-c2nn([C@@H](C)C(F)(F)F)c(N)c2C(N)=O)cc1 | Percentage inhibition of kinase enzyme activity: 2.26

Item: C=CC(=O)N1CCC[C@@H](n2nc(-c3ccc(Oc4ccccc4)cc3)c3c(N)ncnc32)C1 | Percentage inhibition of kinase enzyme activity: 7.80

Item: CC#CC(=O)N1CCC[C@H]1c1nc(-c2ccc(C(=O)Nc3ccccn3)cc2)c2c(N)nccn12 | Percentage inhibition of kinase enzyme activity: -2.81

----------
Molecular target: PAK5 (Homo sapiens)
Construct: purchased Carna Biosciences
Sequence (Q9P286 whole entry): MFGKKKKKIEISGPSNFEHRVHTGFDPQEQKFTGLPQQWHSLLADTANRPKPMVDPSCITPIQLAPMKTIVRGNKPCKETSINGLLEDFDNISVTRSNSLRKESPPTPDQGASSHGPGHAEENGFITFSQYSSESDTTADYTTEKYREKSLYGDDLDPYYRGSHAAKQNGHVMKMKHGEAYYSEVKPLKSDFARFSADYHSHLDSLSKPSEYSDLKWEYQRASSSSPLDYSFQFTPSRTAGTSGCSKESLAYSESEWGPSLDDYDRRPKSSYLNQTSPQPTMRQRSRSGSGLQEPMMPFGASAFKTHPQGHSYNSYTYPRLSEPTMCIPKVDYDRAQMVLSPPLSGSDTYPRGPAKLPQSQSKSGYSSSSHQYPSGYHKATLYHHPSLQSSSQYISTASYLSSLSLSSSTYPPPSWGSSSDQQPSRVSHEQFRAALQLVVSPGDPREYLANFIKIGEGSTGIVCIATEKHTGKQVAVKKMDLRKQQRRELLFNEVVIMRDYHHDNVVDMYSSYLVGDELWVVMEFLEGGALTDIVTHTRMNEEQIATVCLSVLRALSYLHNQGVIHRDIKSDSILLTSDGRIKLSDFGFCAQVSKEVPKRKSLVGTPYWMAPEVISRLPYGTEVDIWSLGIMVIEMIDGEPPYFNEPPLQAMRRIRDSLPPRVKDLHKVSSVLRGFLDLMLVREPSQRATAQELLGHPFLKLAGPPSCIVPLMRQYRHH
Experiment: Kinase panel profiling at 1 µmol/L (mobility shift assay, Carna)
Format: biochemical
Conditions: 1 µmol/L of BTK inhibitor
Each item that follows carries a reported Percentage inhibition of kinase enzyme activity.
Numeric only. Scale: %

These recorded examples may help you get a feel for the data.
- CC#CC(=O)N1CCC[C@H]1c1nc(-c2ccc(C(=O)Nc3ccccn3)cc2)c2c(N)nccn12: -0.37
- O=C(c1ccc(Oc2ccccc2)cc1Cl)c1c[nH]c2ncnc(N[C@@H]3CC[C@@H](CO)OC3)c12: 66.81
- COc1ccc(F)cc1C(=O)NCc1ccc(-c2nn([C@@H](C)C(F)(F)F)c(N)c2C(N)=O)cc1: -1.30

Item: C=CC(=O)N1CCC[C@@H](n2nc(-c3ccc(Oc4ccccc4)cc3)c3c(N)ncnc32)C1 | Percentage inhibition of kinase enzyme activity: 12.42
